Data provenance is the RNAGym collection of RNA variant scans (doi:10.7554/elife.80360).

self-cleavage listing for selected variants.
B1: Hairpin Ribozyme (parent)
chain: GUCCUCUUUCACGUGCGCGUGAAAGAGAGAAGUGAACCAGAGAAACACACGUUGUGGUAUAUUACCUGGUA

variants of: B1; assay: self-cleavage, relative activity (ratio to wild type); higher = more cleavage; co-transcriptional
OBSERVABLE: self-cleavage

| RESIDUE_SEQUENCE | VALUE |
| --- | --- |
| GUCCUCUUUCACGUGCGUGUGAAAGAGAGAAGUGAACGAGAGAAACACACGUUGUGGUAUAUUACCUGGUA [C18U C38G] | 0.158 |
| GUCCUCUUUCACGUGCGCGUGAAAGAGAGAAGUGACCCAGAGAACCACACGUUGUGGUAUAUUACCUGGUA [A36C A45C] | 0.236 |
| GUCCUCUUUCACGUGCGCGUGAAAGAGAGAAGUGAACCAGAGAAACACUCGUUGUGGUAUAUUACCUGGGA [A49U U70G] | 0.39 |
| GUCCUCUUUCACGUGCGCGUGAAAGAGAGAAGUGAACAAGAGAAACACACGUUGUGGUAUAUUACCUGGUC [C38A A71C] | 0.228 |
| GUCCUCUUUCACGUGCGCGUCAAAGAGAGAAGUGACCCAGAGAAACACACGUUGUGGUAUAUUACCUGGUA [G21C A36C] | 0.534 |
| GUCCUCUUUCACGUGCGCGUGAAAGAGAGUAGUGAACCUGAGAAACACACGUUGUGGUAUAUUACCUGGUA [A30U A39U] | 0.0553 |
| AUCCGCUUUCACGUGCGCGUGAAAGAGAGAAGUGAACCAGAGAAACACACGUUGUGGUAUAUUACCUGGUA [G1A U5G] | 0.14 |
| GUCCUCUUCCACGUGCGCGUGAAAGAGGGAAGUGAACCAGAGAAACACACGUUGUGGUAUAUUACCUGGUA [U9C A28G] | 1.33 |
| GUCCUCUUUCACGUGCGCGUGAAAGAGAGAAGUGAACCCGAGAAACACACGUUGUAGUAUAUUACCUGGUA [A39C G56A] | 0.193 |
| GUCCUCUUUCACGUGCGCGUGAAAGAGAGAAGUGAACUAGAGAAACAAACGUUGUGGUAUAUUACCUGGUA [C38U C48A] | 0.142 |
| GUCCUCUUCCACGUCCGCGUGAAAGAGAGAAGUGAACCAGAGAAACACACGUUGUGGUAUAUUACCUGGUA [U9C G15C] | 0.977 |
| GACCUCUUUCACGUGCGCGUGAAAGAGAGAACUGAACCAGAGAAACACACGUUGUGGUAUAUUACCUGGUA [U2A G32C] | 0.0974 |
| GUCCUCUUUCACGUGCGCGUGAAAGAGAGAAGUGAACCCGACAAACACACGUUGUGGUAUAUUACCUGGUA [A39C G42C] | 0.169 |
| GUCCUCUUUCACGUGCGCGUGAAAGAGAGAAGUGAAUCAGAGAAACACACGUAGUGGUAUAUUACCUGGUA [C37U U53A] | 0.775 |
| GUCCACUUUCACGUGCGCGUGAAAGAGAGAAGUGAACCAGAGAAACACACGUUGUGGUAUAUUACCUGGUA [U5A] | 0.368 |
| GUCCUCUUUCACGUGCGCGUGAAAGAGAGAAGUGAACCAGAGAAAGACACGUAGUGGUAUAUUACCUGGUA [C46G U53A] | 0.0595 |
| GUCCUCUUUCACGUGCGCGUGAAAGAGAGAAGUGAACCAGUGAAAGACACGUUGUGGUAUAUUACCUGGUA [A41U C46G] | 0.133 |
| GUCCUCUCUCACGUGCGCGUGAAAGAGAGAAGUGAACAAGAGAAACACACGUUGUGGUAUAUUACCUGGUA [U8C C38A] | 0.215 |
| GUCCUCUUUCACGUGCGCGUGAAAAAGAGAAAUGAACCAGAGAAACACACGUUGUGGUAUAUUACCUGGUA [G25A G32A] | 0.216 |
| GUCCUCUUUCACGUGCGCGUGAAAGAGAGAAGUGAACCAGAGAAACACACGAUGUGGUAUAUUACCCGGUA [U52A U67C] | 0.239 |
| GUCCCCUUUCACGUGCGCGUGAAAGAGAGAAGUGAACCAGAGAAACUCACGUUGUGGUAUAUUACCUGGUA [U5C A47U] | 0.166 |
| GUCCUCUUUCACGUGCGCGUGAAAGAGAGAAGUGAACAUGAGAAACACACGUUGUGGUAUAUUACCUGGUA [C38A A39U] | 0.206 |
| GUCCUCGUUCACGUGCGCGUGAAAGAGAGAAGUGAACCACAGAAACACACGUUGUGGUAUAUUACCUGGUA [U7G G40C] | 0.207 |
| GUCCUCUUUCACGUGCGCGUGAAAGAGAGAAGUGAACGAGAGAAACAUACGUUGUGGUAUAUUACCUGGUA [C38G C48U] | 0.108 |
| GUCCUCUUUCACGUGCGCGUGAAAGAGAGAAGUGAACCAUAGAAACACACGUUGUGGUAUAUUACCUGGUA [G40U] | 0.175 |
| GUCCUCUUUCACGUGCGCGUGUAAGAGAGAAGUGAACCAGACAAACACACGUUGUGGUAUAUUACCUGGUA [A22U G42C] | 0.325 |
| GUCCUCUUUCACGUGGGCUUGAAAGAGAGAAGUGAACCAGAGAAACACACGUUGUGGUAUAUUACCUGGUA [C16G G19U] | 0.719 |
| GUCCUCUUUCACGUGCGCGUGAAAGGGAGAAGUGAACCAGAGAAACACACGUUGUGGUACAUUACCUGGUA [A26G U60C] | 0.963 |
| GUCCUCUUUCACGUGCGCGUGAAAGAGAGAAGUGAACCAGAGAAACUCACGUUGUGGUAUAUUAGCUGGUA [A47U C65G] | 0.139 |
| GUCCUCUUUGACGUGCGCGUGAAAGAGAGAAGUGAACCAGAGAAACACACCUUGUGGUAUAUUACCUGGUA [C10G G51C] | 0.585 |
| GUCCUGUUUCCCGUGCGCGUGAAAGAGAGAAGUGAACCAGAGAAACACACGUUGUGGUAUAUUACCUGGUA [C6G A11C] | 0.45 |
| GUCCUCUUUCACGUGCGCGUGAAAUAGAGAAGUGAACCAGAGAAACACACGUUGCGGUAUAUUACCUGGUA [G25U U55C] | 0.205 |
| GUCCUCUUUCACUUGCGCGUGAAAGAGAGAAGUGAACCAGAGAAACACACUUUGUGGUAUAUUACCUGGUA [G13U G51U] | 0.887 |
| GUCCUCUUUCACGUGCGCGUGAAAGAGAGAAGUGAAGCAGAGAAACACAUGUUGUGGUAUAUUACCUGGUA [C37G C50U] | 0.214 |
| GUCCUCUUUCACGUGCGCGUGAAAGCGAGAAGUGAACCAGAGAAACACACGUUGUGGUAUAUUACCUAGUA [A26C G68A] | 0.117 |
| GUCCGCUUUCACGUGCGCGUGAAAGAGAGAAGUGAACCAGAGAAACACACGUUGUGGUAAAUUACCUGGUA [U5G U60A] | 0.161 |
| GUCCUCUUUCUCGUGUGCGUGAAAGAGAGAAGUGAACCAGAGAAACACACGUUGUGGUAUAUUACCUGGUA [A11U C16U] | 1.02 |
| GGCCUCUUUCACGUGCGCGUGAAAGAGAGAAGUGAACCAGAGAAACACACGUUGUGGCAUAUUACCUGGUA [U2G U58C] | 0.384 |
| GUCUUCUUUCACGUGCGCGUGAAAGAGAGAAGUGAACCAGAGAAACACACGUUGUGGUAUAUUUCCUGGUA [C4U A64U] | 0.205 |
| GUCCUCUUUCACGUGCGCGUGAAAGAGAGAAGUGAACCAGAGAAAGACACGUUGUGGUAUAUUACCGGGUA [C46G U67G] | 0.198 |
| GUCCUCUUUCACGUACGCGUGAAAGAGAGAAGUGAACCAGAGAAACACACGUUGUGGUUUAUUACCUGGUA [G15A A59U] | 0.213 |
| GUCCUCUUUCACGUGCGCGUGAAAGAGAGAAGUGAACCAGAGAAAUACACGCUGUGGUAUAUUACCUGGUA [C46U U52C] | 0.215 |
| GUCCUCUUUCACGUGCGCGUGAAAGAGAGAAGUGAACCAGAGAAACACACGUUGGGGUAUAUUACCGGGUA [U55G U67G] | 0.233 |
| GGCCUCUAUCACGUGCGCGUGAAAGAGAGAAGUGAACCAGAGAAACACACGUUGUGGUAUAUUACCUGGUA [U2G U8A] | 0.295 |
| GUCCUCUUUCACGUGCGCGUGAAAGAGAGAAGUGAACCAGAGAAACACACGUUGUGGUACACUACCUGGUA [U60C U62C] | 0.569 |
| GUCCUCUUUCACGUGCGCGUGCAAGAGAGAAGUGAACCAGAGAAACACACGUUGUGGUAUAGUACCUGGUA [A22C U62G] | 0.155 |
